- SYSTEM TESTED: Kras and SOS1 (biotin-tagged human Kras loaded with GDP, His-tagged human SOS1) (Homo sapiens, UniProt P01116, G12D)
- Construct: made in house; host or cells: E. coli (stated for Kras only)
- Sequence (P01116 1-188 isoform P01116-2 G12D): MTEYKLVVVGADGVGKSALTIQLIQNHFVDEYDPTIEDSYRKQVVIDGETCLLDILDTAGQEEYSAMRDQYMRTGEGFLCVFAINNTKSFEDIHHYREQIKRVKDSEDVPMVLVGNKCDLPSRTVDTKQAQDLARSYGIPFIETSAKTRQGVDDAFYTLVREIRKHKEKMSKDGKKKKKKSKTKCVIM
- ASSAY NAME: Protein-protein interaction inhibition between Kras and SOS1 (KrasGl2D-SOS PPI) using AlphaScreen
- Format: binding
- TEST SETTINGS: AlphaScreen; biotin-tagged human Kras loaded with GDP, His-tagged human SOS1; read-out: KRAS G12D-SOS PPI IC50
Positions of bridges follow the written chain, without caps; N, C: chain ends. Non-standard residues stand in square brackets, D forms with d. Residues, ends and D or L forms follow the SMILES beside them. *: point of attachment. hPhe(3-Cl-4-CF3) = N[C@@H](CCc1ccc(C(F)(F)F)c(Cl)c1)C(=O)O; NMePhe(2-Cl) = CN[C@@H](Cc1ccccc1Cl)C(=O)O; NMeCha = CN[C@@H](CC1CCCCC1)C(=O)O; NMeD = CN[C@@H](CC(=O)O)C(=O)O; NMeL = CN[C@@H](CC(C)C)C(=O)O; NMeNva = CCC[C@H](NC)C(=O)O; NMeV = CN[C@H](C(=O)O)C(C)C; NMeA = CN[C@@H](C)C(=O)O; Piperidide = C1CCN(*)CC1; Pyrrolidide = C1CCN(*)C1; Ac5c = NC1(C(=O)O)CCCC1; Aze = O=C(O)[C@@H]1CCN1; Ac4c = NC1(C(=O)O)CCC1; Sar = CNCC(=O)O
MEASURED PARAMETER: IC50 (nM)

compound="CCC[C@H]1C(=O)N(C)CC(=O)N[C@@H](CCc2ccc(C(F)(F)F)c(Cl)c2)C(=O)N2CCC[C@H]2C(=O)NC2(CCCC2)C(=O)N(C)[C@@H](C(C)C)C(=O)N(C)[C@H](C(=O)N2CCCCC2)CC(=O)N(C)[C@@H](CC(C)C)C(=O)N[C@@H]([C@@H](C)CC)C(=O)N(C)[C@@H](C)C(=O)N2CC[C@H]2C(=O)N1C [Compound 1027] ([NMeL]I[NMeA][Aze][NMeNva][Sar][hPhe(3-Cl-4-CF3)]P[Ac5c][NMeV][NMeD]-Piperidide; lactam N-11)" measured_parameter=IC50 readout_number=8.2
compound="CC[C@H](C)[C@@H]1NC(=O)[C@H](C)N(C)C(=O)C[C@@H](C(=O)N2CCCC2)N(C)C(=O)[C@H](C(C)C)N(C)C(=O)C2(CCC2)NC(=O)[C@H](Cc2ccccc2Cl)N(C)C(=O)[C@H](CCc2ccc(C(F)(F)F)c(Cl)c2)NC(=O)CN(C)C(=O)[C@H](CC2CCCCC2)N(C)C(=O)CN(C)C(=O)CN(C)C1=O [Compound 906] ([NMeA]I[Sar][Sar][NMeCha][Sar][hPhe(3-Cl-4-CF3)][NMePhe(2-Cl)][Ac4c][NMeV][NMeD]-Pyrrolidide; lactam N-11)" measured_parameter=IC50 readout_number=2.7

----------
Reported IC50 values are given for each entry in this list.
- SYSTEM TESTED: Kras and SOS1 (biotin-tagged human Kras loaded with GDP, His-tagged human SOS1) (Homo sapiens, UniProt P01116, G12D)
- Construct: made in house; host or cells: E. coli (stated for Kras only)
- ASSAY NAME: Protein-protein interaction inhibition between Kras and SOS1 (KrasGl2D-SOS PPI) using AlphaScreen
- Format: binding
- TEST SETTINGS: AlphaScreen; biotin-tagged human Kras loaded with GDP, His-tagged human SOS1; read-out: KRAS G12D-SOS PPI IC50
Starred links: 1 amine or outer side, 2 acyl side, 3 side chain; linkers in the order of their positions; H or OH if unused. Positions of bridges follow the written chain, without caps; N, C: chain ends. Non-standard residues stand in square brackets, D forms with d. Residues, ends and D or L forms follow the SMILES beside them. hPhe(3-Cl-4-CF3) = N[C@@H](CCc1ccc(C(F)(F)F)c(Cl)c1)C(=O)O; NMePhe(4-Me) = CN[C@@H](Cc1ccc(C)cc1)C(=O)O; NMedβ3hAla = C[C@H](CC(=O)[*:2])N(C)[*:1]; Pro(4,4-F2) = O=C(O)[C@@H]1CC(F)(F)CN1; NMe3Pal = CN[C@@H](Cc1cccnc1)C(=O)O; NMeI = CC[C@H](C)[C@H](NC)C(=O)O; NMeD = CN[C@@H](CC(=O)O)C(=O)O; NMeL = CN[C@@H](CC(C)C)C(=O)O; NMeA = CN[C@@H](C)C(=O)O; Ac5c = NC1(C(=O)O)CCCC1; Aze = O=C(O)[C@@H]1CCN1; Ac4c = NC1(C(=O)O)CCC1; Sar = CNCC(=O)O
MEASURED PARAMETER: IC50

compound="CC[C@H](C)[C@@H]1NC(=O)[C@H](CC(C)C)N(C)C(=O)C[C@@H](C(=O)N(C)C)N(C)C(=O)[C@H]([C@@H](C)CC)N(C)C(=O)C2(CCCC2)NC(=O)[C@H](Cc2cccnc2)N(C)C(=O)[C@H](CCc2ccc(C(F)(F)F)c(Cl)c2)NC(=O)CN(C)C(=O)[C@H](Cc2ccc(C)cc2)N(C)C(=O)[C@@H]2CCN2C(=O)[C@H](C)N(C)C1=O [Compound 243] ([NMeL]I[NMeA][Aze][NMePhe(4-Me)][Sar][hPhe(3-Cl-4-CF3)][NMe3Pal][Ac5c][NMeI][NMeD]-NMe2; lactam N-11)" result="0.43 nM"
compound="CC[C@H](C)[C@@H]1NC(=O)[C@H](CC(C)C)N(C)C(=O)C[C@@H](C)N(C)C(=O)[C@H]([C@@H](C)CC)N(C)C(=O)C2(CCC2)NC(=O)[C@@H]2CC(F)(F)CN2C(=O)[C@H](CCc2ccc(C(F)(F)F)c(Cl)c2)NC(=O)CN(C)C(=O)[C@H](Cc2ccc(C)cc2)N(C)C(=O)CN(C)C(=O)CN(C)C1=O [Compound 869] (cyclo([Ac4c][NMeI][NMedβ3hAla][NMeL]I[Sar][Sar][NMePhe(4-Me)][Sar][hPhe(3-Cl-4-CF3)][Pro(4,4-F2)]))" result="9.8 nM"

FYI, the data here is from patent US12371454B2.
